Below are pIC50 values measured for UniProt:O60674.
Sequence (O60674 whole entry, species assumed): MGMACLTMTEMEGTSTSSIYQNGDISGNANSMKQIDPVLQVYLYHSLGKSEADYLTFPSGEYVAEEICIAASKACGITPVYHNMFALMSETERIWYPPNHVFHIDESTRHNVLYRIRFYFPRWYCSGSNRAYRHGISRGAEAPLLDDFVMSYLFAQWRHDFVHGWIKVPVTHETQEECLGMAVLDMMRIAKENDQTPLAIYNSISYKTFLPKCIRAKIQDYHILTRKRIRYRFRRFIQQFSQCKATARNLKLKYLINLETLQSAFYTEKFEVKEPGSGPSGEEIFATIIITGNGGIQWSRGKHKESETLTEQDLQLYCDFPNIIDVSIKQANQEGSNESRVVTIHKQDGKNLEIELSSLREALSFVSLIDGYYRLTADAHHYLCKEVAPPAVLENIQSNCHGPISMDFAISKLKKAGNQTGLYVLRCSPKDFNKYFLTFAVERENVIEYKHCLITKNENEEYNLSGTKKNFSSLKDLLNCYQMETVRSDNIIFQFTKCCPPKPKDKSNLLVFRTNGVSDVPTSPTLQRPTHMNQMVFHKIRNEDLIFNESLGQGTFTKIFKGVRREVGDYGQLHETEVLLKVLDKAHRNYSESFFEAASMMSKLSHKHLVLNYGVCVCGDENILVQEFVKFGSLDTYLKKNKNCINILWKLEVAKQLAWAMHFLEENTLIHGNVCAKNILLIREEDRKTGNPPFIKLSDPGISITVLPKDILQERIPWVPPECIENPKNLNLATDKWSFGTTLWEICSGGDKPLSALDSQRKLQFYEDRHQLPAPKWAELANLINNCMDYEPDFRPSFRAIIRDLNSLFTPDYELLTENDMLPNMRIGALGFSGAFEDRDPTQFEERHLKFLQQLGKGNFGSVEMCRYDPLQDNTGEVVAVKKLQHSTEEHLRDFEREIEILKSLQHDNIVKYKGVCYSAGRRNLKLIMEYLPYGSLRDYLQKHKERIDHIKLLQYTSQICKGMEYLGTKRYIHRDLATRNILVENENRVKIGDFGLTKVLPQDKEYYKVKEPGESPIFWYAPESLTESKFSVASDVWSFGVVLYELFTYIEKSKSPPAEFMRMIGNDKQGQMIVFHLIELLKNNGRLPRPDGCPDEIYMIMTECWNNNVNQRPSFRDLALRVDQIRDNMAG
pIC50: −log10 of the molar value.

IN: Can you share its pIC50? I mean this compound: C[C@@H]1CN(c2ccc(Nc3ncc4ccn(S(=O)(=O)c5cccc6cccnc56)c4n3)cc2)CCN1
OUT: > 7.70

IN: Cool, now CC(=O)Nc1ccc(Nc2cc3c(cn2)c(C)nn3Cc2ccccc2OC(F)F)cc1
OUT: < 6.00

IN: Cool, now CN(c1ncccc1Cn1ccc2cnc(Nc3ccc(C4=CCNCC4)cc3)nc21)S(C)(=O)=O
OUT: > 7.70

IN: Cool, now COc1cc(N2CCNCC2)ccc1Nc1ncc2ccn(S(=O)(=O)c3ccccc3C#N)c2n1
OUT: < 6.00

IN: Cool, now O=S(=O)(c1cccc2cccnc12)n1ncc2cnc(Nc3ccc(N4CCNCC4)cc3)cc21
OUT: < 6.00

IN: Cool, now C[C@H]1CN(c2ccc(Nc3ncc4ccn(Cc5ccccc5N(C)S(C)(=O)=O)c4n3)cc2)CCN1
OUT: > 7.70

IN: Cool, now COc1cc(N2CCNCC2)ccc1Nc1ncc2c(n1)N(S(=O)(=O)c1cccc3cccnc13)CC2(C)C
OUT: < 6.00

IN: Cool, now Cc1cc(S(=O)(=O)n2ccc3cnc(Nc4ccc(N5CCNCC5)cc4)nc32)c2ncccc2c1
OUT: > 7.70

IN: Cool, now CN(c1ncccc1Cn1ccc2cnc(Nc3ccc(N4CCNCC4)cc3)nc21)S(C)(=O)=O
OUT: > 7.70

IN: Cool, now CN(c1ncccc1Cn1ccc2cnc(Nc3ccc4c(c3)CCC(=O)N4)nc21)S(C)(=O)=O
OUT: > 7.70

IN: Cool, now COc1cc(N2CCNCC2)ccc1Nc1cc2c(ccn2S(=O)(=O)c2cccc3cccnc23)cn1
OUT: < 6.00

IN: Cool, now O=c1[nH]c2ccc(Nc3ncc4ccn(S(=O)(=O)c5ccccc5OC(F)F)c4n3)cc2[nH]1
OUT: > 7.70

IN: Cool, now CC(=O)Nc1ccc(Nc2cc3c(ccn3S(=O)(=O)c3cccc(OC(F)(F)F)c3)cn2)cc1
OUT: < 6.00

IN: Cool, now CN(C)S(=O)(=O)c1ccccc1Cn1ncc2cnc(Nc3ccc(N4CCNCC4)cc3)cc21
OUT: > 7.70

IN: Cool, now CN(c1ccccc1Cn1ccc2cnc(Nc3ccc(OC4CNC4)cc3)nc21)S(C)(=O)=O
OUT: > 7.70

IN: Cool, now C[C@@H]1CN(c2ccc(Nc3ncc4ccn(Cc5ccccc5N(C)S(C)(=O)=O)c4n3)cc2)CCN1
OUT: > 7.70

IN: Cool, now N#Cc1ccccc1S(=O)(=O)n1ncc2cnc(Nc3ccc(N4CCNCC4)cc3)cc21
OUT: < 6.00

IN: Cool, now O=S(=O)(c1cccc2cccnc12)n1ccc2cnc(Nc3ccc(N4CCC(O)CC4)cc3)nc21
OUT: > 7.70

IN: Cool, now O=C1CCc2cc(Nc3ncc4cnn(Cc5ccccc5OC(F)F)c4n3)ccc2N1
OUT: > 7.70

IN: Cool, now O=S(=O)(c1cccc2cccnc12)n1ccc2cnc(Nc3ccc(N4CCNCC4)c(F)c3)nc21
OUT: > 7.70

IN: Cool, now COc1cc(N2CCNCC2)ccc1Nc1cc2c(ccn2S(=O)(=O)c2ccccc2C#N)cn1
OUT: < 6.00

IN: Cool, now CN1CCN(c2ccc(Nc3ncc4ccn(Cc5cccnc5N(C)S(C)(=O)=O)c4n3)cc2)CC1
OUT: > 7.70

IN: Cool, now O=S(=O)(c1cccc2cnccc12)n1ccc2cnc(Nc3ccc(N4CCNCC4)cc3)nc21
OUT: > 7.70

IN: Cool, now O=c1[nH]c2ccc(Nc3cc4c(ccn4S(=O)(=O)c4ccccc4OC(F)(F)F)cn3)cc2[nH]1
OUT: < 6.00

IN: Cool, now O=S(=O)(c1ccccc1)n1ccc2cnc(Nc3ccc(N4CCNCC4)cc3)nc21
OUT: > 7.70

IN: Cool, now COc1cc(Nc2cc3c(ccn3S(=O)(=O)c3ccccc3C#N)cn2)ccc1N1CCNCC1
OUT: < 6.00

IN: Cool, now C[C@H]1CN(c2ccc(Nc3ncc4ccn(S(=O)(=O)c5cccc(C#N)c5)c4n3)cc2)CCN1
OUT: > 7.70

IN: Cool, now O=S(=O)(c1ccccc1OC(F)(F)F)n1ccc2cnc(Nc3ccc(N4CCOCC4)cc3)cc21
OUT: < 6.00

IN: Cool, now CN(c1ncccc1Cn1ccc2cnc(Nc3cccc(N4CCNCC4)c3)nc21)S(C)(=O)=O
OUT: > 7.70

IN: Cool, now CN(c1ncccc1Cn1ccc2cnc(Nc3cccc(N4CCOCC4)c3)nc21)S(C)(=O)=O
OUT: > 7.70

IN: Cool, now FC(F)Oc1ccccc1Cn1ccc2cnc(Nc3ccc4ncsc4c3)nc21
OUT: > 7.70
